Source of measurements: patent US20150376269A1

# 50 nM SRA + 5 uM mutant apoL1 peptide binding (RU) values compiled below
Target: T1, serum resistance-associated protein (SRA) from Trypanosoma brucei rhodesiense, recombinant SRA (SEQ ID NO: … (Trypanosoma brucei rhodesiense, UniProt O96637 31-274))
T1 construct: also called SRA protein
T1 sequence: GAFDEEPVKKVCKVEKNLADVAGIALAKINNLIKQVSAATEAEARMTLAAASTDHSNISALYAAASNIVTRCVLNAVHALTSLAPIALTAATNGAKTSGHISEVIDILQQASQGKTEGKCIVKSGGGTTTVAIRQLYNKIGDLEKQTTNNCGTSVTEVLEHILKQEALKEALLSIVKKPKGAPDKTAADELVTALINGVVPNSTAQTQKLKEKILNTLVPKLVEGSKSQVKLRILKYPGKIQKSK
Experiment: SPR, mAb captured, pH 4.5, 25C; competitor biotin-mutant apoL1 peptide
MEASURE: 50 nM SRA + 5 uM mutant apoL1 peptide binding (RU)

BINDER | RESULT UNIT | RECORDED RESULT
H1H10067P (antibody, V domains shown, Fully human antibody with human IgG1 Fc (prefix H1H)) VH: QVQLQESGPGLVKPSQTLSLTCIVSGGSISSGDYYWNWIRQHPGKGLEWIGDIYHSGDTYYNPSLKSRVTISLDTSKNQFSLKLSSLTAADTAVYYCARDRIVATGGGMDVWGQGTTVTVSS VL: DIQMTQSPSTLSASVGDRVTITCRASQSISSWLAWYQRKPGKAPNLLIYRSSSLESGVPSRFSGSGSGTEFTLTISSLQADDFVIYYCQQYNSYPYTFGQGTKLEIK | RU | 82
H1H10031P (antibody, V domains shown, Fully human antibody with human IgG1 Fc (prefix H1H)) VH: EVQLVESGGNVVRPGGSLRLSCSGSGFAFENYGMSWVRQGPGKGLEWVSNINWNGGSLNYVDSVKGRFTISRDNAKNSLYLQMNSLRAEDTALYYCARVIVYGMDVWGQGTTVTVSS VL: DIQMTQSPSSLSASVGDRVTITCRASQGIRNGLGWFQQKPGKAPKRLIYATSSLQSGVPSRFSGSGSGTEFTLTISSLQPEDFATYYCLQSNSYPWTFGQGTKVEIK | RU | 57
H1H10064P (antibody, V domains shown, Fully human antibody with human IgG1 Fc (prefix H1H)) VH: QVQLVQSGAEVKKPGSSVKVSCKASGGSFSSNVFSWVRQAPGQGLEWMGGIIPIFGSANYAQKFQGRVTITTDESTTTAYMELSSLRSEDTAVYYCAIGGTGPSGYNWNYGAFYIWGQGTMVTVSS VL: DIQMTQSPSSLSASVGDRVTITCRASQGIRNDLGWYQQKPGIAPKRLIYAASSLQSGVPSRFSGSGSGTEFTLTISSLQPEDFATYYCLQHNSYPYTFGQGTKLEIK | RU | 67
